Kindly state GI50 for each of the entries shown.
- System: SK-MEL-2
- measurementNotes: NCI tumour cell line growth inhibition, 48 h
Calls of active or inactive are those of the source. No stated cut-off is given here; in the data, active = GI50 up to about 1.1 µM and inactive = higher.

Sample records with GI50:
# compound, GI50
measured = [
    ("COC(=O)C1(Cc2ccc3c(c2)CCC3)Cc2ccccc2C1=O (stereo not drawn)", "13.2 µM (inactive)"),
    ("Cc1ccc(NC(=O)CC(=O)N2N=C(c3ccccc3)C(/N=N/c3ccc(S(=O)(=O)CCOS(=O)(=O)O)cc3)C2=O)cc1 (stereo not drawn)", "57.1 µM (inactive)"),
    ("O=C(CCc1ccccc1)On1c(-c2ccccc2)nc2ccccc2c1=S", "8.81 µM (inactive)"),
    ("CC(=O)Nc1cc2nc3n(c2cc1C)CCC3OC(C)=O (stereo not drawn)", "> 100 µM (inactive)"),
    ("c1ccc(/N=C2\\S/C(=N\\C3CCCCC3)N(C3CCCCC3)\\C2=N/c2ccccc2)cc1", "> 100 µM (inactive)"),
]

Each compound below has a reported value. Please supply its GI50.
1. C/C(=N\NC(=O)C[n+]1ccccc1)c1sc(-c2nc(C)c(/C(C)=N/NC(=O)C[n+]3ccccc3)s2)nc1C
2. CCOC(=O)Nc1ccc(C)c(NC(=O)OCC)c1
3. CC1[C@@H](OCc2ccccc2)COC(=O)N1Cc1ccccc1 (stereo partly drawn)

### Response
1: > 100 µM (inactive); 2: > 100 µM (inactive); 3: > 100 µM (inactive)

====

- System: SNB-75
- measurementNotes: NCI tumour cell line growth inhibition, 48 h
Calls of active or inactive are those of the source. Cut-off read from the data, not from the text of the source: active = GI50 up to about 1.1 µM and inactive = higher.
measuredParameter: GI50

Sample records with GI50:
# structureString, assayTarget, testResult
rows = [
    ("NCCS(=O)(=O)O", "SNB-75", "> 100 µM (inactive)"),
    ("CCOC(=O)c1cc2c3c(c(C(C)=O)c(O)c2[nH]1)N(C(C)=O)CC3", "SNB-75", "> 100 µM (inactive)"),
    ("O=C(N/N=C/c1ccc2c(c1)CCC2)c1ccccc1O", "SNB-75", "16.8 µM (inactive)"),
    ("O=[N+]([O-])c1ccc2ncccc2c1CCc1c([N+](=O)[O-])ccc2ncccc12", "SNB-75", "> 100 µM (inactive)"),
    ("CC(=O)Oc1ccc2c(C)cc(=O)oc2c1OC(C)=O", "SNB-75", "27 µM (inactive)"),
]

Now consider the entry below.
### Prompt Provide GI50, tested on SNB-75, for Cc1c(/C=N/NC(=O)c2ccccc2)c(=O)n(-c2ccccc2)n1C .
### Response > 100 µM (inactive)

====

- Tested on: COLO 205
- measurementNotes: NCI tumour cell line growth inhibition, 48 h
Activity calls are given as the source filed them. Cut-off read from the data, not from the text of the source: active = GI50 up to about 1.1 µM and inactive = higher.
Kindly state GI50 for each of the entries shown.

Sample records with GI50:
# compound, GI50
data = [
    ("COc1cccc2c1C(=O)c1c(O)c3c(c(O)c1C2=O)C[C@@](O)(C(C)O)C[C@@H]3OC1CC(N)C(O)C(C)O1 (stereo partly drawn)", "1.41 µM (inactive)"),
    ("O=C(NCCc1ccccn1)c1ccc2cc(C(=O)N3CC(CCl)c4ccc([N+](=O)[O-])cc43)[nH]c2c1 (stereo not drawn)", "> 100 µM (inactive)"),
    ("CCOC(=O)NC(Nc1cccc(C(F)(F)F)c1)(C(F)(F)F)C(F)(F)F", "> 100 µM (inactive)"),
    ("O=C(O)CNS(=O)(=O)c1ccc(NC(=O)Nc2ccccc2)cc1", "> 100 µM (inactive)"),
    ("C=C1CC2(CC(c3ccccc3OC)OC(c3ccccc3OC)C2)OC1=O (stereo not drawn)", "2.36 µM (inactive)"),
    ("Cc1cc(=O)nc(Sc2ccc([N+](=O)[O-])cc2[N+](=O)[O-])[nH]1", "4.65 µM (inactive)"),
]

Each compound below has a reported value. Please supply its GI50.
1. Nc1nc(N)c2c(n1)NC(=O)c1c(c3ccccc3n1Cc1ccc(Cl)cc1)C2
2. C=C(C)C12CC3CC/C(=N/O)C(C1)C3(N1CCOCC1)C/C2=N/O (stereo not drawn)

### Response
1: 16 µM (inactive); 2: > 100 µM (inactive)
